Task for the reader: assign each of the following compounds its reported MIC.
- Test system: Haemophilus parainfluenzae
- test_summary: Antimicrobial activity against Haemophilus parainfluenzae 2319
- Format: functional
Kindly answer with a numeric value in µg/mL, unit omitted.

query: Return value of MIC for input CC(=O)NC[C@H]1CN(c2ccc(N3CCOCC3)c(F)c2)C(=O)O1 [LINEZOLID] , no commentary.
result: 16

query: Return value of MIC for input COc1ccc2oc3c(c(=O)c2c1O)C(=O)c1c(ccc2cc4c(c(O)c12)C(=O)N1C(C)(C4)OC(=O)C1(C)CO)C3=O (stereo not given) [CITREAMICIN DELTA] , no commentary.
result: 1

query: Return value of MIC for input C[C@@H](O)[C@H]1C(=O)N2C(C(=O)O)=C(S[C@@H]3CN[C@H](C(=O)N(C)C)C3)[C@H](C)[C@H]12 [MEROPENEM] , no commentary.
result: 0.03

====

- Tested on: Pseudomonas aeruginosa
- test_summary: Antimicrobial activity against Pseudomonas aeruginosa 1473
- Format: functional
observed_property: MIC

query: Send back Pseudomonas aeruginosa MIC of CC(=O)NC[C@H]1CN(c2ccc(N3CCOCC3)c(F)c2)C(=O)O1 [LINEZOLID] only.
result: > 64 µg/mL

query: Send back Pseudomonas aeruginosa MIC of COc1ccc2oc3c(O)c4c(c(O)c3c(=O)c2c1O)-c1c(cc2c(c1O)C(=O)N1C(C)(C2)OC(=O)C1(C)CO)CC4 (stereo not given) [CITREAMICIN EPSILON] only.
result: > 32 µg/mL

query: Send back Pseudomonas aeruginosa MIC of COc1ccc2oc3c(c(=O)c2c1O)C(=O)c1c(ccc2cc4c(c(O)c12)C(=O)N1C(C)(C4)OC(=O)C1(C)CO)C3=O (stereo not given) [CITREAMICIN DELTA] only.
result: > 64 µg/mL

query: Send back Pseudomonas aeruginosa MIC of "CCCCCCCCCC(=O)N[C@@H](Cc1c[nH]c2ccccc12)C(=O)N[C@H](CC(N)=O)C(=O)N[C@@H](CC(=O)O)C(=O)N[C@@H]1C(=O)NCC(=O)N[C@@H](CCCN)C(=O)N[C@@H](CC(=O)O)C(=O)N[C@H](C)C(=O)N[C@@H](CC(=O)O)C(=O)NCC(=O)N[C@H](CO)C(=O)N[C@@H]([C@H](C)CC(=O)O)C(=O)N[C@@H](CC(=O)c2ccccc2N)C(=O)O[C@@H]1C" only.
result: > 64 µg/mL

query: Send back Pseudomonas aeruginosa MIC of C[C@@H](O)[C@H]1C(=O)N2C(C(=O)O)=C(S[C@@H]3CN[C@H](C(=O)N(C)C)C3)[C@H](C)[C@H]12 [MEROPENEM] only.
result: 4 µg/mL
